- System: HOP-92 NSCLC
- protocol-text: NCI-60 one-dose screen, 48 h
- stated-conditions: 10 µM unless noted
The panel holds about 83,000 compounds, 20% with a hit somewhere; the sample as a whole holds those more often. The source made the active and inactive calls. The calls were made as follows: active = growth percent below 10; inactive = the rest.
Labels: active, inactive

{"columns": ["compound", "class-assignment"],
 "data": [
  ["O=C(COc1ccc(/C=C2\\C(=O)Nc3ccc(Cl)cc32)cc1)Nc1ccc(Cl)cc1", "inactive"],
  ["Cc1ccc2c(n1)C(=O)C(Cl)=C(Nc1ccc(C(C)C)cc1)C2=O", "inactive"],
  ["CC1=C(SCC(=O)OCCCCCC(C)C)C(=O)c2ccccc2C1=O", "inactive"],
  ["CN1c2ccccc2Sc2cc(/C=N/Nc3ccnc4cc(Cl)ccc34)ccc21", "inactive"],
  ["COc1ccc2c(c1)c(-c1nnc(N)nc1-c1c[nH]c3ccc(F)cc13)cn2C", "inactive"],
  ["CN(C)S(=O)(=O)c1ccc(-c2nc(C(Cl)Cl)nc3cc(-c4ccccc4)nn23)cc1", "inactive"],
  ["CN1CCN(Cc2ccc(NC(=O)c3cncc(C#Cc4cnc5ccc(OCCCS(C)(=O)=O)nn45)c3)cc2C(F)(F)F)CC1", "active"],
  ["CCCCOc1ccc(S(=O)(=O)N2CCN(c3nc(C)cc(N4CCOCC4)n3)CC2)cc1", "inactive"],
  ["N#Cc1nc(-c2ccc(Cl)cc2)oc1N1CCC(S(=O)(=O)N2CCOCC2)CC1", "inactive"],
  ["O=C1C(N2CCN(c3ccccc3)CC2)=C(Cl)C(=O)c2ncccc21", "inactive"],
  ["Cc1ccc(NC(=O)Nc2nc3ccc([N+](=O)[O-])cc3s2)cc1", "active"],
  ["COc1cc(/C=C2/C(=O)Nc3ccc(Cl)cc32)ccc1OCc1ccc(Cl)cc1", "inactive"],
  ["CCS(=O)(=O)Nc1ccc(C(=O)CC2(O)C(=O)Nc3ccccc32)cc1 (stereo not given)", "inactive"],
  ["Cc1csc(/N=C(N)/N=C(\\N)c2cccnc2)n1", "inactive"],
  ["CC(C)(C)Nc1nc2c(OCCc3ccccc3)cccn2c1-c1cccc(Oc2ccccc2)c1", "active"],
  ["C#Cc1cc(OC)c(C(=O)Nc2ccc(F)cc2C(=O)Nc2cccc(S(=O)(=O)C(F)(F)F)c2)cn1", "active"],
  ["COc1ccc(/C=N/NC(=O)CSc2nc(-c3cnccn3)cc(-c3cccs3)c2C#N)cc1", "inactive"],
  ["Cc1ncn(-c2ccc(/C=N/Nc3ccnc4cc(Cl)ccc34)cc2)c1C", "active"],
  ["NC(N)=NS(=O)(=O)c1ccc(N=Nc2c(N)nn(-c3ccc([N+](=O)[O-])cc3[N+](=O)[O-])c2N)cc1", "inactive"],
  ["CC/C(=C(/c1ccc(Cl)cc1)c1ccc(OCCN)cc1)c1ccccc1", "inactive"]
]}

----------
- Tested on: PC-3 prostate
- protocol-text: NCI-60 one-dose screen, 48 h (100 = growth as untreated, 0 = no growth, -100 = all killed)
- stated-conditions: 10 µM unless noted
About 83,000 compounds went through this panel and 20% of them were active in at least one assay; those are over-represented in the sample as a whole.
Please respond with criterion met when measured growth is strictly beneath 70%, and with criterion not met in all other cases.

{"columns": ["chemical-smiles", "class-assignment"],
 "data": [
  ["Fc1cccc(Cl)c1/C=N/Nc1nc(N/N=C/c2c(F)cccc2Cl)nc(N2CCCCC2)n1", "criterion met"],
  ["O=C(NCCNc1cc(-c2cn(-c3ccccc3)nc2-c2cccc(O)c2)ccn1)Nc1cc(C(F)(F)F)cc(C(F)(F)F)c1", "criterion not met"],
  ["CN1CCN(Cc2ccc(NC(=O)c3cncc(C#Cc4cnc5ccc(O[C@@H]6CCOC6)nn45)c3)cc2C(F)(F)F)CC1", "criterion met"],
  ["O=C(O)c1ccc(-n2c(=O)n(-c3cccc(C(F)(F)F)c3)c(=O)c3cc(-c4ccc(F)cc4F)ccc32)cc1", "criterion met"],
  ["CSc1ccc(/C(=N/N=C(N)N)c2ccc(F)cc2)cc1", "criterion met"],
  ["O=C1C(SCc2ccccc2)=C(Cl)CN1c1ccc(Cl)cc1", "criterion not met"],
  ["Nc1nc(=O)n([C@H]2C[C@H](O)[C@@H](CO)O2)cc1C=O", "criterion met"],
  ["CN1CCN(c2ccc(Nc3nc(NCCCNS(=O)(=O)c4ccc(Cl)cc4)c4sccc4n3)cc2)CC1", "criterion met"],
  ["Cn1cc(-c2nnc(N)nc2-c2c[nH]c3ccc(F)cc23)c2cc(Br)ccc21", "criterion met"],
  ["NS(=O)(=O)c1ccc(Nc2nc(N/N=C/c3ccc4c(c3)OCO4)nc(Nc3ccccc3)n2)cc1", "criterion met"],
  ["Cc1cc(=O)[nH]c(O)c1C#N", "criterion not met"],
  ["Cc1ccc(-c2nc(SCC(=O)c3ccccc3)nc(Nc3ccc(S(N)(=O)=O)cc3)c2C#N)cc1", "criterion not met"],
  ["Fc1ccc2nc(-c3cnn4cccnc34)sc2c1", "criterion not met"],
  ["Oc1[nH]c2ccc(Cl)cc2c1N=Nc1nc(N=Nc2c(O)[nH]c3ccc(Cl)cc23)nc(N2CCCCC2)n1", "criterion met"],
  ["C#CCN(C)CCCOc1ccc(NC(=O)CCCCCCCCC(=O)NO)cc1Cl", "criterion not met"],
  ["CCOC(=O)c1ccc(NC2=CC(=O)C(C)=C(C)C2=O)cc1", "criterion met"]
]}

----------
- System: OVCAR-5 ovarian
- protocol-text: NCI-60 one-dose screen, 48 h
- stated-conditions: 10 µM unless noted
Compounds without any hit were thinned out: in the full panel of roughly 83,000, 20% have a hit. The source made the active and inactive calls. The calls were made as follows: active = growth percent below 10; inactive = the rest.
Labels: active, inactive

{"columns": ["compound", "class-assignment"],
 "data": [
  ["CC/C(=C(/c1ccc(Cl)cc1)c1ccc(OCCN)cc1)c1ccccc1", "inactive"],
  ["CSc1ccc(/C(=N/N=C(N)N)c2ccc(Cl)cc2)cc1", "inactive"],
  ["CCOC(=O)c1c(NCC(=O)Nc2cccc([N+](=O)[O-])c2)sc(C(C)=O)c1C", "active"],
  ["O=C1[C@@H]2Cc3c([nH]c4ccccc34)[C@@H](c3ccc(Cl)cc3)N2C(=O)CN1C1CCN(Cc2c(F)cccc2F)CC1", "inactive"],
  ["COc1ccc([C@@H]2C(=O)N(c3cc(OC)c(OC)c(OC)c3)[C@H]2c2ccc(OC)c(O)c2)cc1", "inactive"],
  ["O=C1C(N2CCN(c3ccccc3)CC2)=C(Cl)C(=O)c2ncccc21", "inactive"],
  ["Cc1ccc(-c2csc(N/N=C/c3cccs3)n2)cc1", "inactive"],
  ["CN1CCN(c2ccc(Nc3nc(NCCNS(=O)(=O)c4ccc5ccccc5c4)c4sccc4n3)cc2)CC1", "inactive"],
  ["Cc1ccc(C)c(NC2=C(Cl)C(=O)c3nc(C)ccc3C2=O)c1", "active"],
  ["O=C(NCCNc1cc(-c2cn(-c3ccccc3)nc2-c2cccc(O)c2)ccn1)Nc1cc(C(F)(F)F)cc(C(F)(F)F)c1", "inactive"],
  ["Cc1cccc(N2CCN(C3=C(Cl)C(=O)c4ncccc4C3=O)CC2)c1", "inactive"],
  ["CCc1cc(OC(=O)N2CCN(CCC(C)(COC(C)(C)C)COC(C)(C)C)CC2)ccc1Nc1cc(-c2ccc(-n3cccn3)cc2)[nH]n1", "inactive"],
  ["Cc1[nH]c(C(=O)Nc2ccccc2OCc2cccc(C(=O)NC3CCNC3)c2)c(Cl)c1Cl (stereo unspecified)", "inactive"],
  ["CCN(CC)CCOc1ccc(C(=C(C)c2ccc(OC)cc2)c2ccc(OCCN(CC)CC)cc2)cc1", "inactive"],
  ["O=C(CSc1nc2ccccc2c(=O)n1-c1ccc(Cl)cc1)N/N=C/c1ccc(Oc2ccc(Cl)cc2)cc1", "inactive"],
  ["Cc1nc(/N=C(N)/N=C(\\N)c2cccc(Br)c2)sc1C", "inactive"],
  ["Cn1cc(-c2cc3ncnc(Nc4ccc(CC(=O)Nc5nc(C(C)(C)C)cs5)cc4)c3s2)cn1", "inactive"],
  ["C1=CC(c2nn3c(-c4ccccc4)nnc3s2)=Cc2ccccc2O1", "inactive"],
  ["CC(=O)C1=C(C)NC(NNc2ccccc2)=NC1c1ccc([N+](=O)[O-])cc1 (stereo unspecified)", "inactive"],
  ["CCCCSC1=C(Cl)CN(c2ccccc2)C1=O", "inactive"],
  ["COc1ccc(-c2c(C(N)=O)c(N)n(Cc3nc4ccccc4[nH]3)c(=O)c2C#N)c(OC)c1", "inactive"],
  ["COc1ccc(C2CC(c3cccc(OCCCCOc4cccc(C5=NOC(c6ccc(OC)cc6)C5)c4)c3)=NO2)cc1 (stereo unspecified)", "inactive"],
  ["NS(=O)(=O)c1ccc(Nc2nc(N/N=C/c3ccc4c(c3)OCO4)nc(Nc3ccccc3)n2)cc1", "inactive"],
  ["CNC(=O)c1cc(Oc2ccc3c(c2)sc2nc(-c4ccc(N(C)C)cc4)cn23)ccn1", "inactive"],
  ["Fc1cccc(Cl)c1/C=N/Nc1nc(N/N=C/c2c(F)cccc2Cl)nc(N2CCCCC2)n1", "inactive"],
  ["O=C(N/N=C/c1cc2ccccc2nc1Cl)c1cc(-c2nc3ccccc3[nH]2)nc2ccccc12", "inactive"],
  ["CCOC(=O)C(=O)Nc1ccc2c(ccn2C(=O)c2cccc(F)c2)c1", "inactive"],
  ["CCOP(=O)(OCC)OC[C@]12CCC(C)(C)C[C@H]1C1=CC[C@@H]3[C@@]4(C)CC[C@H](OP(=O)(OCC)OCC)C(C)(C)[C@@H]4CC[C@@]3(C)[C@]1(C)CC2", "inactive"],
  ["O=S(=O)(NCCCNc1nccc(-c2[nH]c(-c3ccccc3)nc2-c2ccc(F)c(O)c2)n1)c1ccccc1", "inactive"],
  ["COc1ccc(/C(=N\\NC(N)=S)c2ccc(Cl)cc2)cc1OC", "inactive"],
  ["NC(=O)n1c(=O)n(-c2cccc(C(F)(F)F)c2)c(=O)c2cc(-c3ccc(F)cc3F)ccc21", "inactive"],
  ["CNC(=O)c1cc(N2CCc3cc(NC(=O)Nc4ccc(N5CCOCC5)c(C(F)(F)F)c4)ccc32)ccn1", "inactive"],
  ["CNCCN(C)c1ccc(Nc2cc(NC3CC3)n3ncc(C#N)c3n2)cc1NC(C)=O", "active"],
  ["COc1ccc(/C=N/NC(=O)c2c(N)nn(C)c2Nc2ccccc2)cc1Oc1ccccc1", "inactive"],
  ["O=C(/C=C/Nc1ccc(S(=O)(=O)Nc2ncccn2)cc1)c1ccc(N=Cc2c(O)[nH]c3ccccc23)cc1", "inactive"],
  ["Cn1ncc2ncc(-c3ccc4ncc(C#N)c(N5CCc6cc(F)c(Cl)cc65)c4c3)cc21", "inactive"]
]}

Where do these numbers come from? They come from PubChem BioAssay (NCI).
